Experiment: Solubility study in different solvents
Assay type: physicochemical
Settings: thermodynamic from solid; Water (purified), 20° C.; read-out: Solubility
readout: solubility (µg/mL)
Give the value, in units of µg/mL, as a plain number.

[Q] For the compound `O=C(Nc1nc2cccc(-c3ccc(CN4CCS(=O)(=O)CC4)cc3)n2n1)C1CC1` , give its measured solubility value.
[A] 3.84

###

Assay: Solubility study in different solvents
Assay type: physicochemical
Details: organic solvent or mixture, thermodynamic from solid; t-butyl methyl ether, 20° C.; read-out: Solubility
readout: solubility

[Q] Report solubility, nothing else, for this molecule: O=C(Nc1nc2cccc(-c3ccc(CN4CCS(=O)(=O)CC4)cc3)n2n1)C1CC1 [Compound 1]
[A] < 2.39 µg/mL

###

Test: Solubility study in different solvents
Assay type: physicochemical
Conditions: organic solvent or mixture, thermodynamic from solid; Ethanol, 20° C.; read-out: Solubility
readout: solubility

[Q] Report solubility, nothing else, for this compound: `O=C(Nc1nc2cccc(-c3ccc(CN4CCS(=O)(=O)CC4)cc3)n2n1)C1CC1`
[A] 151 µg/mL

###

Test: Solubility study in different solvents
Format: physicochemical
Settings: organic solvent or mixture, thermodynamic from solid; Propanol, 20° C.; read-out: Solubility
readout: solubility (µg/mL)
Quick note: give the figure in µg/mL, leave out the unit.

[Q] Return solubility for the following molecule: O=C(Nc1nc2cccc(-c3ccc(CN4CCS(=O)(=O)CC4)cc3)n2n1)C1CC1 [Compound 1]
[A] 134

###

Assay: Solubility study in different solvents
Format: physicochemical
Settings: aqueous with cosolvent or surfactant or cyclodextrin, thermodynamic from solid; Acetonitrile/water (1/1), 20° C.; read-out: Solubility
readout: solubility (µg/mL)
State the answer as a number, implicitly in µg/mL.

[Q] Supply recorded solubility for `O=C(Nc1nc2cccc(-c3ccc(CN4CCS(=O)(=O)CC4)cc3)n2n1)C1CC1` here.
[A] 1570

###

Test: Solubility study in different solvents
Type: physicochemical
Details: pH adjusted with HCl/NaOH, aqueous buffer, thermodynamic from solid; Water pH 2, 20° C.; read-out: Solubility
readout: solubility (µg/mL)
Use µg/mL as the unit, but write only the number.

[Q] Tell me measured solubility for `O=C(Nc1nc2cccc(-c3ccc(CN4CCS(=O)(=O)CC4)cc3)n2n1)C1CC1` please.
[A] 291

###

Experiment: Solubility study in different solvents
Format: physicochemical
Details: organic solvent or mixture, thermodynamic from solid; Acetonitrile/water (4/1), 20° C.; read-out: Solubility
readout: solubility (µg/mL)
Record the value in µg/mL, omitting the unit from your answer.

[Q] Fill in solubility for record O=C(Nc1nc2cccc(-c3ccc(CN4CCS(=O)(=O)CC4)cc3)n2n1)C1CC1 [Compound 1]
[A] 3110

###

Experiment: Solubility study in different solvents
Format: physicochemical
Details: pH adjusted with HCl/NaOH, aqueous buffer, thermodynamic from solid; Water pH 7, 20° C.; read-out: Solubility
readout: solubility (µg/mL)
Kindly provide the numeric value in µg/mL only, without the unit symbol.

[Q] // fetch solubility given entry `O=C(Nc1nc2cccc(-c3ccc(CN4CCS(=O)(=O)CC4)cc3)n2n1)C1CC1`
[A] 4.32

###

Experiment: Solubility study in different solvents
Format: physicochemical
Settings: aqueous with cosolvent or surfactant or cyclodextrin, thermodynamic from solid; Water/ethanol 1/1, 20° C.; read-out: Solubility
readout: solubility (µg/mL)
Answer format: numeric, µg/mL implied, no suffix.

[Q] Quickly give me recorded solubility for `O=C(Nc1nc2cccc(-c3ccc(CN4CCS(=O)(=O)CC4)cc3)n2n1)C1CC1`
[A] 327

###

Assay: Solubility study in different solvents
Format: physicochemical
Details: pH 2, simulated gastric fluid, thermodynamic from solid; 0.01M HCl, 20° C.; read-out: Solubility
readout: solubility (µg/mL)
The reply should contain only the number, in µg/mL.

[Q] Give the value of solubility reported for the following: `O=C(Nc1nc2cccc(-c3ccc(CN4CCS(=O)(=O)CC4)cc3)n2n1)C1CC1`
[A] 288

###

Assay: Solubility study in different solvents
Type: physicochemical
Conditions: pH adjusted with HCl/NaOH, aqueous buffer, thermodynamic from solid; Water pH 9, 20° C.; read-out: Solubility
readout: solubility (µg/mL)
// units = µg/mL; emit number, no label

[Q] State its solubility: O=C(Nc1nc2cccc(-c3ccc(CN4CCS(=O)(=O)CC4)cc3)n2n1)C1CC1 [Compound 1]
[A] 4.29

###

Test: Solubility study in different solvents
Assay type: physicochemical
Details: organic solvent or mixture, thermodynamic from solid; Dichloromethane, 20° C.; read-out: Solubility
readout: solubility (µg/mL)
The reply should be a number in µg/mL, with the unit left off.

[Q] Let me know recorded solubility for `O=C(Nc1nc2cccc(-c3ccc(CN4CCS(=O)(=O)CC4)cc3)n2n1)C1CC1` , thanks.
[A] 5660

###

Test: Solubility study in different solvents
Type: physicochemical
Conditions: 0.01M HCl + 2.0% Tweet 80 (so in the source); presumably Tween 80), pH 2, aqueous with cosolvent or surfactant or cyclodextrin, thermodynamic from solid; 0.01M HCl + 2.0% Tweet 80, 20° C.; read-out: Solubility
Method: The supersaturated solution is then filtered and the concentration of product in the filtrate is determined using UV-spectrometry. In water, the influence of the pH is adjusted to pH 2, pH 7, and pH 9. HCl and NaOH are used to adjust the pH.
readout: solubility (µg/mL)
Report the figure in µg/mL without appending any unit label.

[Q] Retrieve solubility measured for `O=C(Nc1nc2cccc(-c3ccc(CN4CCS(=O)(=O)CC4)cc3)n2n1)C1CC1` and print it.
[A] 313

###

Experiment: Solubility study in different solvents
Type: physicochemical
Conditions: organic solvent or mixture, thermodynamic from solid; Tetrahydrofuran, 20° C.; read-out: Solubility
readout: solubility (µg/mL)
The reply should contain only the number, in µg/mL.

[Q] Report solubility for `O=C(Nc1nc2cccc(-c3ccc(CN4CCS(=O)(=O)CC4)cc3)n2n1)C1CC1`
[A] 740

###

Experiment: Dog bioavailability study
Assay type: in vivo, beagle dogs
Details: male, beagle, plasma, 10 mg/kg, single oral administration, range over both forms and both capsule strengths
readout: half-life

[Q] Item `O=C(Nc1nc2cccc(-c3ccc(CN4CCS(=O)(=O)CC4)cc3)n2n1)C1CC1` : provide half-life
[A] 4.43 to 8.96 h

###

Assay: Solubility study in different solvents
Assay type: physicochemical
Settings: organic solvent or mixture, thermodynamic from solid; PEG400, 20° C.; read-out: Solubility
readout: solubility
Respond with the figure and its unit, in that order.

[Q] Tell me its solubility given `O=C(Nc1nc2cccc(-c3ccc(CN4CCS(=O)(=O)CC4)cc3)n2n1)C1CC1` as the entry.
[A] 1530 µg/mL

###

Assay: Solubility study in different solvents
Type: physicochemical
Details: organic solvent or mixture, thermodynamic from solid; Acetonitrile, 20° C.; read-out: Solubility
readout: solubility (µg/mL)
Give just the numeric value; µg/mL need not be written.

[Q] Query solubility for `O=C(Nc1nc2cccc(-c3ccc(CN4CCS(=O)(=O)CC4)cc3)n2n1)C1CC1`
[A] 605

###

Test: Thermodynamic aqueous solubility by HPLC
Type: physicochemical
Conditions: water; salt from Protocol 4
readout: solubility (µg/mL)
Answer with a number only, understood to be in µg/mL.

[Q] // fetch solubility given entry O=C(Nc1nc2cccc(-c3ccc(CN4CCS(=O)(=O)CC4)cc3)n2n1)C1CC1.O=C(O)/C=C\C(=O)O [Compound 1 maleic acid salt]
[A] 400
